Tested on: Ipomoea hederacea (IPOHE)
experiment-description: Pre-emergence herbicidal evaluation, morning glory
Format: in vivo
assay-context: dose 0.025 kg/ha
readout-label: IPOHE rating

Some solved cases for reference:
>  <smiles-record>
Cc1cc(OCC(F)(F)C(F)F)nc(Oc2cc(C(F)(F)F)nn2C)c1

>  <observed>
1 (1 - Trace effect)

$$$$
>  <smiles-record>
Cc1cc(OC=CCC(F)(F)F)nc(Oc2cc(C(F)(F)F)nn2C)c1

>  <observed>
3 (3 - Moderate effect)

$$$$
>  <smiles-record>
Cc1cc(OCC=C(Cl)Cl)nc(Oc2cc(C(F)(F)F)nn2C)c1

>  <observed>
3 (3 - Moderate effect)

$$$$
>  <smiles-record>
Cc1cc(OC/C=C/C(F)(F)F)nc(Oc2cc(C(F)(F)F)nn2C)c1

>  <observed>
5 (5 - Definite injury)

$$$$
>  <smiles-record>
CC(Cl)=CCOc1cc(C#N)cc(Oc2csc(C(F)(F)F)c2)n1

>  <observed>
0 (0 - No effect)

$$$$

Exercise: Give IPOHE rating for this entry on Ipomoea hederacea (IPOHE): CC(Cl)=CCOc1cc(C)cc(Oc2cc(C(F)(F)F)nn2C)n1
Key: 4 (4 - Injury)

Exercise: Give IPOHE rating for this entry on Ipomoea hederacea (IPOHE): Cc1cc(OCC(F)(F)C(F)(F)C(F)(F)C(F)F)nc(Oc2cc(C(F)(F)F)nn2C)c1
Key: 2 (2 - Slight effect)

Exercise: Give IPOHE rating for this entry on Ipomoea hederacea (IPOHE): C=C(Cl)COc1cc(C)cc(Oc2cc(C(F)(F)F)nn2C)n1
Key: 2 (2 - Slight effect)

Exercise: Give IPOHE rating for this entry on Ipomoea hederacea (IPOHE): Cc1cc(OCC(F)(F)C(F)(F)F)nc(Oc2cc(C(F)(F)F)nn2C)c1
Key: 1 (1 - Trace effect)

Exercise: Give IPOHE rating for this entry on Ipomoea hederacea (IPOHE): COc1cc(OCC(F)(F)C(F)F)nc(Oc2cc(C(F)(F)F)nn2C)c1
Key: 6 (6 - Herbicidal effect)

====

Tested on: Solanum nigrum (SOLNI)
experiment-description: Pre-emergence herbicidal evaluation, black nightshade
Type: in vivo
assay-context: dose 0.1 kg/ha
readout-label: SOLNI rating

Some solved cases for reference:
>  <compound>
CC(Cl)=CCOc1cc(C#N)cc(Oc2csc(C(F)(F)F)c2)n1 [Example 28]

>  <target-of-assay>
Solanum nigrum (SOLNI)

>  <SOLNI rating>
8 (8 - Approaching complete kill)

$$$$
>  <compound>
Cc1cc(OC=CCC(F)(F)F)nc(Oc2cc(C(F)(F)F)nn2C)c1 [Example 2]

>  <target-of-assay>
Solanum nigrum (SOLNI)

>  <SOLNI rating>
8 (8 - Approaching complete kill)

$$$$
>  <compound>
Cc1cc(OC/C=C/C(F)(F)F)nc(Oc2cc(C(F)(F)F)nn2C)c1 [Example 1]

>  <target-of-assay>
Solanum nigrum (SOLNI)

>  <SOLNI rating>
9 (9 - Complete kill)

$$$$
>  <compound>
COc1cc(OCC(F)(F)C(F)F)nc(Oc2cc(C(F)(F)F)nn2C)c1 [Example 4]

>  <target-of-assay>
Solanum nigrum (SOLNI)

>  <SOLNI rating>
8 (8 - Approaching complete kill)

$$$$

Exercise: Give SOLNI rating for this entry on Solanum nigrum (SOLNI): CC(Cl)=CCOc1cc(C)cc(Oc2cc(C(F)(F)F)nn2C)n1 [Example 11]
Key: 8 (8 - Approaching complete kill)

Exercise: Give SOLNI rating for this entry on Solanum nigrum (SOLNI): Cc1cc(OCC(F)(F)C(F)F)nc(Oc2cc(C(F)(F)F)nn2C)c1 [Example 6]
Key: 8 (8 - Approaching complete kill)

Exercise: Give SOLNI rating for this entry on Solanum nigrum (SOLNI): Cc1cc(OCC(F)(F)C(F)(F)C(F)(F)C(F)F)nc(Oc2cc(C(F)(F)F)nn2C)c1 [Example 8]
Key: 8 (8 - Approaching complete kill)

Exercise: Give SOLNI rating for this entry on Solanum nigrum (SOLNI): Cc1cc(OCC=C(Cl)Cl)nc(Oc2cc(C(F)(F)F)nn2C)c1 [Example 12]
Key: 8 (8 - Approaching complete kill)

Exercise: Give SOLNI rating for this entry on Solanum nigrum (SOLNI): Cc1cc(OCC(F)(F)C(F)(F)F)nc(Oc2cc(C(F)(F)F)nn2C)c1 [Example 7]
Key: 4 (4 - Injury)

Provenance of the data: patent US6852673B2
